# System: Sam68 (KHDRBS1)
# protocol: Sam68 small-molecule binders, primary screen, biochemical, small-molecule microarray, 635 nm fluorescence (AID 1125);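 further: score merges 667 nm channel intensity with signal to noise over triplicate slides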
# setupConditions: small-molecule microarray binding, higher = more signal
Label scheme for composite z-score: lower than 1 is N, 1 and above is Y.

Some solved entries appear below for comparison.
- structureSmilesString: "COC(=O)C[C@H]1O[C@]2(C(=O)N(C)c3ccccc32)[C@@H](C)[C@@H]1[Si](C)(C)c1ccc(C)cc1"
  measurementTarget: "Sam68 (KHDRBS1)"
  labelClass: "Y"
- structureSmilesString: "O=C1O[C@@H](c2ccccc2)[C@@H](c2ccccc2)N2[C@@H](c3ccccc3OCCO)[C@]3(C(=O)Nc4ccccc43)[C@@H](C(=O)NC[C@H](O)c3ccccc3)[C@H]12"
  measurementTarget: "Sam68 (KHDRBS1)"
  labelClass: "N"
- structureSmilesString: "CN(C)CCCNC(=O)[C@@]1(c2ccc([N+](=O)[O-])cc2)CC(=O)N(CC23CC4CC(CC(C4)C2)C3)[C@@H]1c1ccc(CO)cc1"
  measurementTarget: "Sam68 (KHDRBS1)"
  labelClass: "Y"
- structureSmilesString: "Cc1ccc(F)cc1S(=O)(=O)N[C@@H]1CCN(Cc2ccc(Oc3ccccc3)cc2)C1"
  measurementTarget: "Sam68 (KHDRBS1)"
  labelClass: "N"
- structureSmilesString: "[N-]=[N+]=NCc1ccccc1C[C@@]1(C(=O)N2CCCCC2)N=C(c2ccc(OCCCO)cc2)O[C@@H]1c1ccccc1N=[N+]=[N-]"
  measurementTarget: "Sam68 (KHDRBS1)"
  labelClass: "Y"
- structureSmilesString: "C=CCOC(=O)[C@@H]1[C@H]2C(=O)O[C@H](c3ccccc3)[C@H](c3ccccc3)N2[C@H](c2ccc(OCCOC(=O)[C@H]3C[C@H]4C(=O)N[C@@H](CCCCNC(C)=O)C(=O)N4[C@H]3c3cccc(OCCO)c3)cc2)[C@@]12C(=O)Nc1ccc(I)cc12"
  measurementTarget: "Sam68 (KHDRBS1)"
  labelClass: "Y"

Query compound follows.
(Q) // inclusive: composite z-score at least 1? input: O=C(CS)NCCCCCCNC(=O)[C@@H]1C[C@@H]2C(=O)N3CCC[C@H]3C(=O)N2[C@@H]1c1cccc(OCCO)c1
(A) Y
